Reported percent viability values for the following sequences.
Tested on: MCF10A
ASSAY_EXPLANATION: percent viability (nuclei count relative to siNT); higher = more viable cells
PROTOCOL_CONDITIONS: 20 nM; 72 h
# include the unit after the value

Recorded percent viability, per entry:
[ask] Let me know recorded percent viability for UGGUCAGAGGCAGCAGGAAAUGA [hsa-miR-6801-5p] , thanks.
[reply] 54.5%

[ask] Let me know recorded percent viability for GGCUUUCUAGUCUCAGCUCUCC [hsa-miR-3160-5p] , thanks.
[reply] 110%

[ask] Let me know recorded percent viability for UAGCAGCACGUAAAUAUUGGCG [hsa-miR-16-5p] , thanks.
[reply] 15.8%

[ask] Let me know recorded percent viability for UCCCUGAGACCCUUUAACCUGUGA [hsa-miR-125a-5p] , thanks.
[reply] 117%

[ask] Let me know recorded percent viability for AUUGCCUAACAUGUGCCAGAA [hsa-miR-4774-3p] , thanks.
[reply] 26.6%

[ask] Let me know recorded percent viability for ACUGACAGGAGAGCAUUUUGA [hsa-miR-3660] , thanks.
[reply] 55%

[ask] Let me know recorded percent viability for UACCCUGUAGAACCGAAUUUGUG [hsa-miR-10b-5p] , thanks.
[reply] 30.6%

[ask] Let me know recorded percent viability for UGGGGGGACAGAUGGAGAGGACA [hsa-miR-6887-5p] , thanks.
[reply] 22.6%

[ask] Let me know recorded percent viability for GGUGGGGGCUGUUGUUU [hsa-miR-4447] , thanks.
[reply] 24.5%

[ask] Let me know recorded percent viability for UAUUGCACAUUACUAAGUUGCA [hsa-miR-32-5p] , thanks.
[reply] 123%

In the following, a different sequence is considered.
[ask] Let me know recorded percent viability for CUACCCCCCAUCCCCCUGUAG [hsa-miR-6798-3p] , thanks.
[reply] 72.5%
